The measured values listed here are drawn from patent US20210380703A1.

Entries and their optical density values follow.
- assay target: mouse ACVR2A (mouse, UniProt P27038 20-135, limits assumed); further: test concentration or dose not given here
- Sequence (P27038 20-135 limits assumed): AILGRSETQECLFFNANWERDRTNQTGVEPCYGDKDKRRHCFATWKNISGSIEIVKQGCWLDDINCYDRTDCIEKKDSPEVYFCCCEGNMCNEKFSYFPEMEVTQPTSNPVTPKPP
- experimental details: ELISA

binder	optical density / OD
376_B07 (antibody, V domains shown, VH/VL only) VH: EVQLLESGGGLVQPGGSLRLSCAASGFTFDSYSMNWVRQAPGKGLEWVSGINYNSGYTSYADSVKGRFTISRDNSKNTLYLQMNSLRAEDTAVYYCARSATWHDTALDYWGQGTLVTVSS VL: DIQMTQSPSSLSASVGDRVTITCRASQSILSYLNWYQQKPGKAPKLVIYYVSNRASGVPSRFSGSGSGTDFTLTISSLQPEDFATYYCQQSYDNPLTFGGGTKVEIK	3.71
376_F03 (antibody, V domains shown, VH/VL only) VH: EVQLLESGGGLVQPGGSLRLSCAASGFTFDSYGMNWVRQAPGKGLEWVANINYNGGYTGYADSVKGRFTISRDNSKNTLYLQMNSLRAEDTAVYYCARSANWHDTALDYWGQGTLVTVSS VL: DIQMTQSPSSLSASVGDRVTITCRASQSIITYVNWYQQKPGKAPKLVIYATTSLASGVPSRFSGSGSGTDFTLTISSLQPEDFATYYCQQSYSSPLTFGGGTKVEIK	3.47
365_A07 (antibody, V domains shown, VH/VL only) VH: EVQLLESGGGLVQPGGSLRLSCAASGFTFSSYGMNWVRQAPGKGLEWVAGINYNSGYKGYADSVKGRFTISRDNSKNTLYLQMNSLRAEDTAVYYCARSATWHDTHLDYWGQGTLVTVSS VL: DIQMTQSPSSLSASVGDRVTITCRASQSIVSYLNWYQQKPGKAPKLLIYAATSRASGVPSRFSGSGSGTDFTLTISSLQPEDFATYYCQQSYNLPLTFGGGTKVEIK	2.25
374_C04 (antibody, V domains shown, VH/VL only) VH: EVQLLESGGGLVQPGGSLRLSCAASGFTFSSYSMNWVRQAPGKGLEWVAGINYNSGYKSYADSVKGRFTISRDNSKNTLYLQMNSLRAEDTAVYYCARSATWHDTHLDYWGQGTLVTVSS VL: DIQMTQSPSSLSASVGDRVTITCRASQSILTYLNWYQQKPGKAPKLLIYAASSLQSGVPSRFSGSGSGTDFTLTISSLQPEDFATYYCQQSYELPLTFGGGTKVEIK	3.74
374_F11 (antibody, V domains shown, VH/VL only) VH: EVQLLESGGGLVQPGGSLRLSCAASGFTFDSYSMNWVRQAPGKGLEWVSNINYNGGYTGYADSVKGRFTISRDNSKNTLYLQMNSLRAEDTAVYYCARSANWHDTALDYWGQGTLVTVSS VL: DIQMTQSPSSLSASVGDRVTITCRASQSILSYLNWYQQKPGKAPKLLIYAVTSLASGVPSRFSGSGSGTDFTLTISSLQPEDFATYYCQQSYESPLTFGGGTKVEIK	3.61
373_E03 (antibody, V domains shown, VH/VL only) VH: EVQLLESGGGLVQPGGSLRLSCAASGFTFDSYGMNWVRQAPGKGLEWVSNINYNGGYTGYADSVKGRFTISRDNSKNTLYLQMNSLRAEDTAVYYCARSATWHDTALDYWGQGTLVTVSS VL: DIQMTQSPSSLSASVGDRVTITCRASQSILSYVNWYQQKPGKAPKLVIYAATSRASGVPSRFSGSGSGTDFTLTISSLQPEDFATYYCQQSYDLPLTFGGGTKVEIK	3.46
374_D12 (antibody, V domains shown, VH/VL only) VH: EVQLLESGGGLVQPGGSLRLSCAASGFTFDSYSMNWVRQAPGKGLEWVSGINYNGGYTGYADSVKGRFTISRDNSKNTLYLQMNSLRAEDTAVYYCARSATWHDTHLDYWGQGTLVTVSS VL: DIQMTQSPSSLSASVGDRVTITCRASQSIVSYVNWYQQKPGKAPKLVIYAATSRASGVPSRFSGSGSGTDFTLTISSLQPEDFATYYCQQSYDLPLTFGGGTKVEIK	3.28
376_C06 (antibody, V domains shown, VH/VL only) VH: EVQLLESGGGLVQPGGSLRLSCAASGFTFSSYGMNWVRQAPGKGLEWVAGINYNGGYTSYADSVKGRFTISRDNSKNTLYLQMNSLRAEDTAVYYCARSATWHDTALDYWGQGTLVTVSS VL: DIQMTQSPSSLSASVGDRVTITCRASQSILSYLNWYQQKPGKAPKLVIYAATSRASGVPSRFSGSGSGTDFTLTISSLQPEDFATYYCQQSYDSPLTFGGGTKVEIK	3.56
374_G04 (antibody, V domains shown, VH/VL only) VH: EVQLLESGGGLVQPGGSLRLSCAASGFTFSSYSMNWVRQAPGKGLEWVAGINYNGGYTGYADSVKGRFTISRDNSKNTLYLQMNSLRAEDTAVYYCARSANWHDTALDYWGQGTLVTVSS VL: DIQMTQSPSSLSASVGDRVTITCRASQSILTYLNWYQQKPGKAPKLVIYAATSLASGVPSRFSGSGSGTDFTLTISSLQPEDFATYYCQQSYDNPLTFGGGTKVEIK	2.32
368_C01 (antibody, V domains shown, VH/VL only) VH: EVQLLESGGGLVQPGGSLRLSCAASGFTFDSYGMNWVRQAPGKGLEWVAGINYNGGYTGYADSVKGRFTISRDNSKNTLYLQMNSLRAEDTAVYYCARSATWHDTALDYWGQGTLVTVSS VL: DIQMTQSPSSLSASVGDRVTITCRASQSIITYLNWYQQKPGKAPKLLIYAATSRASGVPSRFSGSGSGTDFTLTISSLQPEDFATYYCQQSYDSPLTFGGGTKVEIK	2.92
